Tested on: U251 CNS
Assay: NCI-60 one-dose screen, 48 h (100 = growth as untreated, 0 = no growth, -100 = all killed)
Conditions: 10 µM unless noted
Compounds without any hit were thinned out: in the full panel of roughly 83,000, 20% have a hit.
Entries are sorted into classes by growth as follows: range 1 = under -70%, range 2 = from -70% up to 80%, range 3 = 80% and over

# bin lookup: classify CC(C)c1sc(NC(=O)c2cc(NC(=O)c3cc(NC(=O)c4cscn4)cn3C)cn2C)nc1C(=O)NCCCN(C)C by its growth
range 2

Now the compound COc1c(F)ccc(C(=O)Nc2ccc3nc(NC(=O)C4CCCN(S(=O)(=O)c5cccc(Br)c5)C4)sc3c2)c1F (stereo not drawn)
range 2

Proceed to CSc1ccc(NC(=O)c2ccc3nn(/C(C#N)=C/c4ccccn4)nc3c2)cc1
range 1

Cool, now COc1ccc(-c2nc3cc(C)ccc3n2CC(=O)N=Nc2c(O)[nH]c3ccc(Cl)cc23)cc1
range 1

Same question, Cn1cc(-c2cc(N)n3nc(-c4cn(C)c5ccc(Cl)cc45)cc3n2)c2ccccc21 this time
range 3

Then what about the compound CN(C)c1nc(NCCNS(=O)(=O)c2ccc(C3=Nc4c(N)nc(N)nc4NC(c4ccccc4)C3)cc2)nc(Nc2ccc(F)cc2)n1 (stereo not drawn) ?
range 2

Same question, CCN1CCN(Cc2ccc(C(=O)Nc3cccc(C#Cc4cccc5[nH]nc(N)c45)c3)cc2C(F)(F)F)CC1 this time
range 1

Input CCCCCCCCc1ccc(C(=O)Nc2ccc(C)cc2C(=O)O)cc1C
range 3

Continue with COc1c(F)ccc(C(=O)Nc2ccc3nc(NC(=O)C4CCCN(S(=O)(=O)c5ccc(C#N)cc5)C4)sc3c2)c1F (stereo not drawn)
range 3

Query Cc1cc2nc3c4ccccc4n(CCCN(C)C)c3nc2cc1C next
range 2

Try the compound COc1cc2c3c(n(CCCN4CCC[C@@H]4CO)c(=O)c2cc1OC)-c1cc2c(cc1C3=O)OCO2
range 1

Field entry: CSc1ccccc1NC(=O)c1ccc2nn(/C(C#N)=C/c3ccccn3)nc2c1
range 1

// repeat for COc1cc(CNC(=O)/C=C/c2ccc3c(c2)OCO3)ccc1OCc1cn(-c2ccc([N+](=O)[O-])cc2)nn1 and report
range 3

Record: COc1ccc(C(=O)/C=C/c2cccc(Br)c2)cc1S(N)(=O)=O
range 1

Please answer likewise for Cn1cc(-c2cc(N)n3nc(-c4c[nH]c5ccccc45)cc3n2)c2cccnc21
range 2

Consider next the compound CC1CN(c2oc(-c3ccc([N+](=O)[O-])cc3)nc2C#N)CC(C)O1 (stereo not drawn) in the same way.
range 3

Attribution: PubChem BioAssay (NCI)
